Recorded Antibacterial activity AG173 E. coli AAC(3)-IV by entry
- System: AG173 E. coli AAC(3)-IV
- method.notes: Antibacterial activity, clinical isolate AG173
- Format: cell-based
- Source text: Minimal inhibitory concentrations (MIC) have been determined by broth microdilution assays (CLSI. Methods for Dilution Antimicrobial Susceptibility Tests for Bacteria That Grow Aerobically; Approved Standard—Tenth Edition. CLSI document M07-A10. Wayne, Pa.: Clinical and Laboratory Standards Institute; 2015.). Table 4 and 5 show the antibacterial activity of the compounds of the invention against bacterial reference strains (table 4) and against representative clinical isolates (table 5).
observable: Antibacterial activity AG173 E. coli AAC(3)-IV

compound: CNC1C(O)C2O[C@H](O[C@@H]3C(N)C[C@@H](N)[C@@H](O)[C@H]3OCC(O)CO)C(N)C[C@@H]2O[C@@H]1O[C@H]1OC(CO)[C@@H](N)[C@H](O)C1O (stereo partly drawn) [DC208]
relation.sign: >
readout.value: 64
//
compound: CNC1C(O[C@H]2OC(CO)[C@@H](N)C(O)C2O)O[C@H]2CC(N)[C@@H](O[C@@H]3C(N)C[C@@H](N)C(O)C3O)OC2C1O (stereo partly drawn) [apramycin]
relation.sign: ≥
readout.value: 128
//
compound: CN[C@H]1C(O)C2O[C@H](O[C@@H]3C(N)C[C@@H](N)[C@@H](O)[C@H]3OCCCN)C(N)C[C@@H]2O[C@@H]1O[C@H]1OC(CO)[C@@H](N)[C@H](O)C1O (stereo partly drawn) [DC213]
relation.sign: =
readout.value: 128
//
compound: CNC1C(OC2OC(CO)C(N)C(O)C2O)OC2CC(N)C(OC3C(N)CC(N)C(O)C3F)OC2C1O (stereo not drawn) [DC168, 5-Deoxy-5-epi-fluoro apramycin]
relation.sign: =
readout.value: 128
//
compound: CNC1C(O)C2O[C@H](O[C@@H]3C(N)C[C@@H](N)[C@@H](O)[C@H]3OCCCO)C(N)C[C@@H]2O[C@@H]1O[C@H]1OC(CO)[C@@H](N)[C@H](O)C1O (stereo partly drawn) [DC207]
relation.sign: >
readout.value: 128
//
compound: CNC1C(OC2OC(CO)C(N)C(O)C2O)OC2CC(N)C(OC3C(N)CC(N)C(O)C3OC3OC(CN)C(OCCN)C3O)OC2C1O (stereo not drawn) [DC185]
relation.sign: =
readout.value: 4
//
compound: CNC1C(OC2OC(CO)C(N)C(O)C2O)OC2CC(N)C(OC3C(N)CC(N)C(O)C3OC3OCC(O)C3O)OC2C1O (stereo not drawn) [DC146, 5-O-β-D—(Erythrofuranosyl) apramycin]
relation.sign: =
readout.value: 128
//
compound: CNC1C(OC2OC(CO)C(N)C(O)C2O)OC2CC(N)C(OC3C(N)CC(N)C(O)C3OC3OC(CO)C(OCCN)C3O)OC2C1O (stereo not drawn) [DC124]
relation.sign: =
readout.value: 4
//
compound: CNC1C(OC2OC(CO)C(N)C(O)C2O)OC2CC(N)C(OC3C(N)CC(N)C(O)C3OC3OC(CNC=O)C(O)C3O)OC2C1O (stereo not drawn) [DC177]
relation.sign: >
readout.value: 64
//
compound: CNC1C(OC2OC(CO)C(N)C(O)C2O)OC2CC(N)C(OC3C(N)CC(N)C(O)C3O)OC2C1O (stereo not drawn) [DC161, 5-Epi-apramycin]
relation.sign: =
readout.value: 64
//
compound: CNC1C(OC2OC(CO)C(N)C(O)C2O)OC2CC(N)C(OC3C(N)CC(N)C(OCCO)C3O)OC2C1O (stereo not drawn) [DC167, 6-O-(2-Hydroxyethyl)-apramycin]
relation.sign: >
readout.value: 128
//
compound: CNC1C(OC2OC(CO)C(N)C(O)C2O)OC2CC(N)C(OC3C(N)CC(N)C(O)C3OC3OC(CNC=O)C(OCCN)C3O)OC2C1O (stereo not drawn) [DC186]
relation.sign: =
readout.value: 32
//
compound: CNC1C(OC2OC(CO)C(N)C(O)C2O)OC2CC(N)C(OC3C(N)CC(N)C(O)C3F)OC2C1O (stereo not drawn) [DC170, 5-Deoxy-5-fluoro apramycin]
relation.sign: =
readout.value: 64
//
compound: CN[C@H]1C(O)C2O[C@H](O[C@@H]3C(N)C[C@@H](N)[C@@H](O)[C@H]3OCC(O)CN)C(N)C[C@@H]2O[C@@H]1O[C@H]1OC(CO)[C@@H](N)[C@H](O)C1O (stereo partly drawn) [DC209]
relation.sign: =
readout.value: 32
//
compound: CNC1C(O)C2O[C@H](O[C@@H]3C(N)C[C@@H](N)C(O)[C@H]3O[C@@H]3O[C@H](CNCCN)[C@@H](O)[C@H]3O)C(N)C[C@@H]2O[C@@H]1O[C@H]1OC(CO)[C@@H](N)[C@H](O)C1O (stereo partly drawn) [DC214]
relation.sign: =
readout.value: 16

====

- System: isolates carrying apmA
- method.notes: MIC broth microdilution, apmA
- Format: cell-based
- condition: apmA resistance gene
observable: MIC

compound: CNC1C(O)C2O[C@H](O[C@@H]3C(N)C[C@@H](N)[C@@H](O)[C@H]3OCCCO)C(N)C[C@@H]2O[C@@H]1O[C@H]1OC(CO)[C@@H](N)[C@H](O)C1O (stereo partly drawn) [DC207]
readout.value: > 128 µg/mL

compound: CNC1C(O)C2O[C@H](O[C@@H]3C(N)C[C@@H](N)[C@@H](O)[C@H]3OCC(O)CO)C(N)C[C@@H]2O[C@@H]1O[C@H]1OC(CO)[C@@H](N)[C@H](O)C1O (stereo partly drawn) [DC208]
readout.value: > 128 µg/mL

compound: CN[C@H]1C(O)C2O[C@H](O[C@@H]3C(N)C[C@@H](N)[C@@H](O)[C@H]3OCCCN)C(N)C[C@@H]2O[C@@H]1O[C@H]1OC(CO)[C@@H](N)[C@H](O)C1O (stereo partly drawn) [DC213]
readout.value: 64 to 128 µg/mL

====

Examples of molecules with documented MIC follow.
- System: isolates carrying apmA
- method.notes: MIC broth microdilution, apmA
- Assay type: cell-based
- condition: apmA resistance gene
- Text: Minimal inhibitory concentrations (MIC) have been determined by broth microdilution assays (CLSI. Methods for Dilution Antimicrobial Susceptibility Tests for Bacteria That Grow Aerobically; Approved Standard—Tenth Edition. CLSI document M07-A10. Wayne, Pa.: Clinical and Laboratory Standards Institute; 2015.). […] Minimal inhibitory concentrations (μg/ml) against clinical isolates from Institute of Medical Microbiology, Univ. […]
observable: MIC

molecule: CNC1C(OC2OC(CO)C(N)C(O)C2O)OC2CC(N)C(OC3C(N)CC(N)C(OCCO)C3O)OC2C1O (stereo not drawn) [DC167, 6-O-(2-Hydroxyethyl)-apramycin]
readout.value: > 64 mg/L

molecule: CNC1C(OC2OC(CO)C(N)C(O)C2O)OC2CC(N)C(OC3CC(O)C(N)CC3N)OC2C1O (stereo not drawn)
readout.value: 16 mg/L

molecule: CN[C@H]1C(O)C2O[C@H](O[C@@H]3C(N)C[C@@H](NC(=O)C(O)CCN)[C@@H](O)[C@H]3O)C(N)C[C@@H]2O[C@@H]1O[C@H]1OC(CO)[C@@H](N)[C@H](O)C1O (stereo partly drawn)
readout.value: 8 mg/L

molecule: CN[C@H]1C(O)C2O[C@H](O[C@@H]3C(N)C[C@@H](N)[C@@H](O)[C@H]3OCC(O)CN)C(N)C[C@@H]2O[C@@H]1O[C@H]1OC(CO)[C@@H](N)[C@H](O)C1O (stereo partly drawn)
readout.value: 64 to 128 mg/L

molecule: CNC1C(OC2OC(CO)C(N)C(O)C2O)OC2CC(N)C(OC3C(N)CC(N)C(O)C3O)OC2C1O (stereo not drawn) [DC161, 5-Epi-apramycin]
readout.value: 2 mg/L

molecule: CNC1C(O[C@H]2OC(CO)[C@@H](N)C(O)C2O)O[C@H]2CC(N)[C@@H](O[C@@H]3C(N)C[C@@H](N)C(O)C3O)OC2C1O (stereo partly drawn)
readout.value: 64 mg/L

====

- Tested on: K. pneum. AG269 AAC(3)-II AAC(6′)-I rmtB
- method.notes: Activity against G1405-methylated 16S-rRNA, clinical isolate AG269
- Assay type: cell-based
- Text: Minimal inhibitory concentrations (MIC) have been determined by broth microdilution assays (CLSI. Methods for Dilution Antimicrobial Susceptibility Tests for Bacteria That Grow Aerobically; Approved Standard—Tenth Edition. CLSI document M07-A10. Wayne, Pa.: Clinical and Laboratory Standards Institute; 2015.).
Overview of recorded Activity K. pneum. AG269 AAC(3)-II AAC(6′)-I rmtB for various molecules
observable: Activity K. pneum. AG269 AAC(3)-II AAC(6′)-I rmtB

molecule: CNC1C(O)C2O[C@H](O[C@@H]3C(N)C[C@@H](N)C(O)[C@H]3O[C@@H]3O[C@H](CNCCN)[C@@H](O)[C@H]3O)C(N)C[C@@H]2O[C@@H]1O[C@H]1OC(CO)[C@@H](N)[C@H](O)C1O (stereo partly drawn)
relation.sign: =
readout.value: 2

molecule: CNC1C(O)C2O[C@H](O[C@@H]3C(N)C[C@@H](N)[C@@H](O)[C@H]3OCC(O)CO)C(N)C[C@@H]2O[C@@H]1O[C@H]1OC(CO)[C@@H](N)[C@H](O)C1O (stereo partly drawn)
relation.sign: =
readout.value: 4

molecule: CNC1C(OC2OC(CO)C(N)C(O)C2O)OC2CC(N)C(OC3C(N)CC(NC(=O)C(O)CCN)C(O)C3O)OC2C1O (stereo not drawn)
relation.sign: =
readout.value: 2

molecule: CNC1C(OC2OC(CO)C(N)C(O)C2O)OC2CC(N)C(OC3C(N)CC(N)C(O)C3OC3OC(CN)C(OCCN)C3O)OC2C1O (stereo not drawn)
relation.sign: =
readout.value: 1

molecule: CNC1C(O)C2O[C@H](O[C@@H]3C(N)C[C@@H](N)[C@@H](O)[C@H]3OCCCO)C(N)C[C@@H]2O[C@@H]1O[C@H]1OC(CO)[C@@H](N)[C@H](O)C1O (stereo partly drawn)
relation.sign: =
readout.value: 8

molecule: CN[C@H]1C(O)C2O[C@H](O[C@@H]3C(N)C[C@@H](NC(=O)C(O)CCN)[C@@H](O)[C@H]3O)C(N)C[C@@H]2O[C@@H]1O[C@H]1OC(CO)[C@@H](N)[C@H](O)C1O (stereo partly drawn)
relation.sign: =
readout.value: 2

molecule: CNC1C(O[C@H]2OC(CO)[C@@H](N)C(O)C2O)O[C@H]2CC(N)[C@@H](O[C@@H]3C(N)C[C@@H](N)C(O)C3O)OC2C1O (stereo partly drawn)
relation.sign: =
readout.value: 2

molecule: CNC1C(OC2OC(CO)C(N)C(O)C2O)OC2CC(N)C(OC3C(N)CC(N)C(O)C3OC3OC(CO)C(OCCN)C3O)OC2C1O (stereo not drawn)
relation.sign: =
readout.value: 2

molecule: CN[C@H]1C(O)C2O[C@H](O[C@@H]3C(N)C[C@@H](N)[C@@H](O)[C@H]3OCC(O)CN)C(N)C[C@@H]2O[C@@H]1O[C@H]1OC(CO)[C@@H](N)[C@H](O)C1O (stereo partly drawn)
relation.sign: =
readout.value: 1

molecule: NCC[C@H](O)C(=O)N[C@@H]1C[C@H](N)[C@@H](O[C@H]2O[C@H](CN)[C@@H](O)[C@H](O)[C@H]2O)[C@H](O)[C@H]1O[C@H]1O[C@H](CO)[C@@H](O)[C@H](N)[C@H]1O [AMK, amikacin, reference compound]
relation.sign: >
readout.value: 256

molecule: CNC1C(O)C2O[C@H](O[C@@H]3C(N)C[C@@H](N)C(O)[C@H]3OC3O[C@H](CN)[C@@H](O)[C@H]3O)C(N)C[C@@H]2O[C@@H]1O[C@H]1OC(CO)[C@@H](N)[C@H](O)C1O (stereo partly drawn)
relation.sign: =
readout.value: 4
